# system.tested: T1, full-length untagged human GPNMB expressed on cells (human, UniProt Q14956 23-572)
# T1 construct: also used here for GPNMB on human monocyte-derived macrophages in the functional assays; also called huGPNMB; Freestyle293-huGPNMB+
# T1 sequence: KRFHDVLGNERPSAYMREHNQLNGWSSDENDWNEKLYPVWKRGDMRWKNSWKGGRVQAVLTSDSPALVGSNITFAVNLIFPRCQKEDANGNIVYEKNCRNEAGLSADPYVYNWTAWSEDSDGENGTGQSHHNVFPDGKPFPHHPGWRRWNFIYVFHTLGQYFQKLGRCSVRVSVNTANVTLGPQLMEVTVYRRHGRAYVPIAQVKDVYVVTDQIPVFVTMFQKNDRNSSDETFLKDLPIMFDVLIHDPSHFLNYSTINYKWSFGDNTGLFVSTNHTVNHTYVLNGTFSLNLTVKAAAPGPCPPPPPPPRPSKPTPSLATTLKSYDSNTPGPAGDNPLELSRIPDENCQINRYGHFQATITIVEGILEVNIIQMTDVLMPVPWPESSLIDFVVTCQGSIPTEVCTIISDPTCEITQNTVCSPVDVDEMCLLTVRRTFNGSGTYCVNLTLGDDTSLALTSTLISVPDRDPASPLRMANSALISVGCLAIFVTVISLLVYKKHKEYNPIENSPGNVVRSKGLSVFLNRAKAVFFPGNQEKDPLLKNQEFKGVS
# assay.method.text: FACS titration, FS293-huGPNMB+ cells
measure: EC50 (nM)
# unit: nM | format: bare number

Worked cases, answers included:
binder	units.of.measure	number
anti-GPNMB antibody GPN-22 (antibody, human IgG1, V domains shown, chimeric) VH: QVQLQQPGAERVKPGASVKMSCKASGYTFTSYWITWVKQRPGQGLEWIGDIFPGSGSTNYHEKFKSKATLTVDTSSSTAYMQLSSLTSEDSAVYYCSRGYFGSSFSDYWGQGTSVTVSS VL: DIQMTQSPSSLSASLGERVSLTCRTSQEISGYLSWLQQKPDGTIKRLIYSTSTLDSGVPKRFSGSRSGSDYSLTISSLESEDFADYYCLQYASSPPTFGSGTKLEIK	nM	0.33
anti-GPNMB antibody GPN-08 (antibody, human IgG1, V domains shown, chimeric) VH: QVQLQQPGAELVKPGASVKLSCRASGYTFTSYWLHWVKQRPGQGLEWIGEINPSDGRTNYIEKVKTKATLTVDKSSSTAYMQLSSLTSEDSAVYYCARSGGNYAWFAYWGQGTLVTVSA VL: DIVMTQSHKFMSTSVGDRVSITCKASQDVSPSVAWYQQRPGQSPKLLIYSASYRYTGVPDRFTGSGSGTDFTFTISSVQAEDLAVYYCQQHYSIPLTFGAGTKLELK	nM	0.87
anti-GPNMB antibody GPN-37 (antibody, human IgG1, V domains shown, chimeric) VH: EVQLVESGGGLVQPGRSLKLSCAASGFTFSSKSGMAWVRQAPTKGLEWVASISNGGGDTYYRDSVKGRFTISRDNAKNTQYLQMDSLRPEDTATYYCARHRDYGYDAYFDYWGQGVMVTVSS VL: DIQMTQSPASLSASLGETVTIECLASEDIYSSLAWYQQKPGKSPQLLIYDASSLQDGVPSRFSGSESGTQYSLEINSLQSEDAATYFCQQHHDYPYTFGAGTKLELK	nM	0.75

Next item in the queue.
Indicate its recorded EC50; the binder in question is anti-GPNMB antibody GPN-26 (antibody, human IgG1, V domains shown, chimeric) VH: EVQLQQSGPELVKPGASVKISCKASGYSFTGYYMNWVRQSPEKSLEWIGEINPSTGITTYNQKFKAKATLTVDKSSNTAFMQLKSLTSEDSAVYYCARPASWFDYWGQGTLVTVSA VL: DIQMTQSPSSLSASLGERVSLTCRASQEISGHLSWLQQKPDGTIKRLIYAASTLDSGVPKRFSGSRSGSDYSLTISSLESEDFADYYCLQYASYPYTFGGGTKLEIK
1.09

The origin of these recorded values is patent US20250270343A1.
